System: MS2 coat protein
Experiment: apparent KD of MS2 coat protein; designed switch direction (-1 OFF switch, 1 ON switch): 1; higher = weaker reporter binding
Details: Eterna round: R95; input ligand: FMN 200 uM
Classify by measured apparent KD of MS2 coat protein: T if it is equal to or exceeds 300 nM, F if it is smaller.

API: above_or_equal(metric=apparent KD of MS2 coat protein, cutoff=300 nM) for item AGUCCAGCCUGAGCUGGACAAAAGCAUGUACAUGAGGAUCACCCAUGUUCAUGUACAAGCUUUUUGCUCGUCUUGCC [salish99_208a_r3_107x] (puzzle: Sensor for hsa-mir-208a)
T

Exam item: decide whether the reported apparent KD of MS2 coat protein for AGUCCAGCCUGAGCUGGACAAAAGCAUGUACAUGAGGAUCACCCAUGUUCAUGUACAAGCUUUUUGCUCGUCUUACA [salish99_208a_r3_076] (puzzle: Sensor for hsa-mir-208a) is at least 300 nM.
T

Answer whether apparent KD of MS2 coat protein of GGCUAUCGCAUUCGAUAGCCUGAGCAUGUACAUGAGGAUCACCCAUGUCAUGUACAGGCUUUUUGCUCGUACUUAUA (puzzle: Sensor for hsa-mir-208a) is greater than or equal to 300 nM.
F

Test whether the sequence GCUCUACAUGAGGAUCACCCAUGUCCGAACGCGCGAGGAUAUGCAUGGGCGAAAGCUGGUGCAGAAGGCGUGGGAC [2theCorner] (puzzle: Same State 1) records apparent KD of MS2 coat protein of 300 nM or higher.
T

Exam item: decide whether the reported apparent KD of MS2 coat protein for UUCCUACAUGAGGAUCACCCAUGUGACGCCUCGAUAGGAUAUGCGUGUGCCUUGGCGCAUGCAGAAGGAUUGUAGC [JL Aveso mod 8] (puzzle: Same State 1) is at least 300 nM.
F

---

Tested on: MS2 coat protein
Test: apparent KD of MS2 coat protein; designed switch direction (-1 OFF switch, 1 ON switch): -1; higher = weaker reporter binding
Conditions: input ligand: none
assayEndpoint: apparent KD of MS2 coat protein (nM)
Answer in nM, number only, no unit symbol.

Consider CCGUUCCGUGUAGGAUAUUGGCCUACCACGGGCCGAGAAGGACAUGAGGAUCACCCAUGUAUGCUAUUAUCGCGCGUGGCGCCC [Design 99] (Eterna round: R96, puzzle: Exclusion NG 1) . Its measured apparent KD of MS2 coat protein is 21.8

Measured apparent KD of MS2 coat protein, CGAUAAAGCUGAGGAUAUGAGGAGAGAGAGAGAUCAGAAGGCAGACAUGAGGAUCACCCAUGUGAGUUCUCGAAAUUAAAUAUU [Prohibition 48 - Jieux - Exclusion NG 1] (Eterna round: R96, puzzle: Exclusion NG 1) : 57.5

apparent KD of MS2 coat protein recorded for this sequence, UACAUGAGGAUCACCCAUGUUUUGUCGUGUAUGGUAUUUAUCUAGGAUAUCAAGUUAUUUAUUUAUGAGAAGGAGAAUAUUAAU [JMF's solution 10] (Eterna round: R96, puzzle: Exclusion NG 3) , is 37.3

Per the record, AUGGAGGCAGGAUAUGAGCGUACGAACAUGAGGAUCACCCAUGUGAGAUCUCCUGGUAGCUCAGAAGGGCUAUCUC [Eternabot (Original) Solution 5] (Eterna round: R97, puzzle: Exclusion 5) has apparent KD of MS2 coat protein of 67.4

Lookup result for UUUAAUUGUCACAUGGGUGACAUGAGGAUCACCCAUGUCACAAGCUUUUUGCUCGUCUUAUAAUUAACCCAUGUGAC [Stov1/12-A1] (Eterna round: R97, puzzle: Sensor, turn-off variant 1) ; measured apparent KD of MS2 coat protein: 13.7

Memo: AAGUCGGCAGGAUAUACAUGAGGAUCACCCAUGUAAAUUUUUCGUUUAACUUGAAUGUGUAGAAGGGCCAUAAA [Ex3 #66] (Eterna round: R97, puzzle: Exclusion 3) , reported apparent KD of MS2 coat protein: 24.5

Summary for this sequence, UAAGAGUGAGGAUAUACGUCGCUGGUCUGGAUGGACGCAUGACAUGAGGAUCACCCAUGUAGAAGGCACAAAAC [Enxela Mod 11 - Jieux - Exclusion 2] (Eterna round: R97, puzzle: Exclusion 2) : apparent KD of MS2 coat protein is 35

Record AGCUUUUUGUUCGUCUUAUACAUGAGGAUCACCCAUGUAUUGGACCGCAUCGAUAGAUGUAGACCAAGAAGCAUGGG [Omdei Mir OFFv1 C5] (Eterna round: R97, puzzle: Sensor, turn-off variant 1) . Reported apparent KD of MS2 coat protein: 48.2

Per the record, GUACUGACAGGAUAUACAUGAGGAUCACCCAUGUGCCCUUAUAGAUGCAAAGCAUCUAGUAGAAGGGUCUGUAC [Omei Ex3 Model Bachelor's Dilema v24] (Eterna round: R97, puzzle: Exclusion 3) has apparent KD of MS2 coat protein of 26.9

---

Test system: K4 kissing-loop RNA reporter;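 note: bound reporter read as fluorescence of individual clusters on recovered sequencing chips by microscopy, with normalized cluster intensities fitted with a binding model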
Experiment: apparent KD of K4 kissing-loop reporter; higher = weaker reporter binding
Conditions: Eterna round: R107; input ligand: FMN 200 uM
Field: apparent KD of K4 kissing-loop reporter. Provide a value for each of the sequences that follow.
Please state the figure in nM; there is no need to write the unit.

Consider GUUGUAUACUGAAGGAGCGAGUAGUGGAAACAUAAACUCAUUGCGAGUGAUGUUCGCAGUACUCAGGUAGGUCGCAGUAAUCGUA [Exclusion Arginine B Gf 10] . Its measured apparent KD of K4 kissing-loop reporter is 534

The sequence listed as AGAUUCGACACGGCCGCCACUUCCAGUGGCUGGUGUCAUGGUGCGCGUGAGUGAUGUUUAUGUGGAAGGACCGGGUGUUGAGUCU [KL-XTryp-B1 #analogue] shows apparent KD of K4 kissing-loop reporter equal to 938

Entry AUAGCUGAUAGCAGUGAUGUUGCUUCAGAUACCAGACGAGAUCAUGUCCCUUGGCAGCUGACAUGGCAAGUGCUAGGUUAGAUGA [#11 K4 Theophylline A Exclusion] — recorded apparent KD of K4 kissing-loop reporter = 140

---

Tested on: MS2 coat protein
Assay: apparent KD of MS2 coat protein; designed switch direction (-1 OFF switch, 1 ON switch): 1; higher = weaker reporter binding
Conditions: input ligand: FMN 200 uM
assayEndpoint: apparent KD of MS2 coat protein (nM)
# number only, unit nM dropped from output

Per the records, this sequence ( GCCGCAAGGGCAGGAUAUGGGUCCAGAGUGCAAAUACACUCUGGUACAUGAGGAUCACCCAUGUCCCAGAAGGGCCCAAGCGGC [Teerledion] (Eterna round: R96, puzzle: Same State NG 2) ) has apparent KD of MS2 coat protein equal to 13.9

apparent KD of MS2 coat protein measured on GUCCAAAACACAGGAUAUCCCAGUCAUGAACUGGGAGAAGGGUGGCCACAUGAGGAUCACCCAUGUGAAGUGCGAGAGGCACGA [Arquarais] (Eterna round: R96, puzzle: Same State NG 1) = 253

Short answer for CUUAUUAAUGCAGGAUAUGAUUAACAUGAGGAUCACCCAUGUGGUGUUGUGAGUAAGGAGAGUGAUCAGAAGGGCAUUUUUUUU [JMF's solution 41] (Eterna round: R96, puzzle: Same State NG 2) : apparent KD of MS2 coat protein was 711

Note to self: apparent KD of MS2 coat protein recorded for ACUCUCACAGUAGGAUAUGUAGGAUAUGCCUACAUGAGGAUCACCCAUGUAAACAUGGCAGAAGGACAGAAGGACUUACAUUGG [pwkr ssNG2 2FMN + 1F5.2] (Eterna round: R96, puzzle: Same State NG 2) was 31.7

apparent KD of MS2 coat protein reading for GCAACGUGAUUAGGAUAUGCGAAACCCAUGGAAACUACACAUGAGGAUCACCCAUGUCCAUAGCCGCAGAAGGGAUCCGGAGCA [Eternabot solution 6] (Eterna round: R96, puzzle: Same State NG 2) : 32.1

Summary for this sequence, GGUGCGAAUAAAGCCUACAUGAGGAUCACCCAUGUAUGUAGGCAGGAUAUCGUUUGCAAAGCAAACGAGAAGGGCUGACGCACC [Mat - Same State NG 3 - JL Mod - D49] (Eterna round: R96, puzzle: Same State NG 3) : apparent KD of MS2 coat protein is 29.3

For this sequence ( AAAGAAAACGCAGGAUAUCCCGGAAUGGAAACGGGAGAAGGGUGACCGGUACAUGAGGAUCACCCAUGUAGAGCACAGGCUCAA [Sousdi] (Eterna round: R96, puzzle: Same State NG 1) ), measured apparent KD of MS2 coat protein is 3380

apparent KD of MS2 coat protein for GUAAUCGUUAUAGGAUAUCAUGAGGAUUACCCAUGAGAAGGGUGAUCUCGAUCCAUAUUCAGAAAAUGAAUGUGGAUAGAUUGC [Omei NG1 A v2] (Eterna round: R96, puzzle: Same State NG 1) is 1010

The sequence listed as UUACUCAUGUAAGGAUAUGCAGCCGAAACGGCUGCAGAAGGUACUAUAAUACAUGAGGAUCACCCAUGUAAAAUAUAUAAAGUU [Mat - Same State NG 1 - JL mod - D96] (Eterna round: R96, puzzle: Same State NG 1) has a reported apparent KD of MS2 coat protein of 33.9

ACAAAGAACACAGGAUAUCGGAAAGGAAGUGUACGAGAAGGGUGGUCAACAGUACAUGAGGAUCACCCAUGUGGUGGAUGGCAA [PowerStrip SSNG 1.12] (Eterna round: R96, puzzle: Same State NG 1) yielded apparent KD of MS2 coat protein of 177

Value of measured apparent KD of MS2 coat protein for the entry GAGGGCGAAAGCAACAUGAGGAUCACCCAUGUUGUCGAAAGGCAGGAUAUCCGGCGAAAGCAGAAGGAGAAGGGUCGAAAAGAA [AK SSNG3-V2-40] (Eterna round: R96, puzzle: Same State NG 3) : 14.5

Documented apparent KD of MS2 coat protein of UGGAGACGUCAAGGAUAUGCUACCGUUUCGGUAGCAGAAGGUGAUCACAUGAGGAUCACCCAUGUAUGCAUGCGUGAGCGUGCU [JL SSNG1 3.52] (Eterna round: R96, puzzle: Same State NG 1) : 72.1

Looking up CCGUUCAAUAAACAUGAGGAUCACCCAUGUAAUAAUAAGGGUGAGGAUAUGCAUCUGAAACAGGUGCAGAAGGCAUAAGAGCGG [JL SSNG3 3.90] (Eterna round: R96, puzzle: Same State NG 3) , I see its apparent KD of MS2 coat protein listed as 487

Form field apparent KD of MS2 coat protein, entry GGAGCCAAGGCAGGAUAUUCAUAUUAAAUAACAUGAGGAUCACCCAUGUAGGCCAGAAGGCCUUGGGAGAAGGGCCAUGGCUCG [Xeonanis - 13 mod21] (Eterna round: R96, puzzle: Same State NG 2) : 21.1

The sequence listed as UUGAUUAACGUAGGAUAUCGACCUACAUGAGGAUCACCCAUGUCUUUGAAUAGAUUUUUUUGUUACGAGAAGGACGUUAUGUAU [JR_SSNG2_Sub066] (Eterna round: R96, puzzle: Same State NG 2) shows apparent KD of MS2 coat protein equal to 40.7

Reported apparent KD of MS2 coat protein ( AGAUCAUGACGAGGAUAUGGUACAUGAGGAUCACCCAUGUAUGUACCAUAACGCGUACGACGAAACCAGAAGGCGUCGUGAUCA [Mat - Same State NG 2 - JL mod - D41] (Eterna round: R96, puzzle: Same State NG 2) ) = 9.06

According to the records, this sequence ACUUGCCGCACAGGAUAUGGGUGCCUGUACAUGAGGAUCACCCAUGUUAAGGGACGGAUUACGAACCAGAAGGGUGAGGCGGGC [Tigeti] (Eterna round: R96, puzzle: Same State NG 2) displays apparent KD of MS2 coat protein of 124

Entry under test: UGGUACAUGGGAGGAUAUGGGCAUGAGACAUGAGGAUCACCCAUGUUAUAAAAGCCGAGAGGCAUCUAGAAGGCCCAUGUACCU [JL SSNG1 3.91] (Eterna round: R96, puzzle: Same State NG 2) . Its apparent KD of MS2 coat protein was 15.2
